- Tested on: human MC3R (Homo sapiens, UniProt P41968)
- Construct: expressed in transfected cells; host or cells: HEK-293 cells stably expressing the GScAMP22F split-luciferase cAMP sensor (parent reporter line from Promega); MC3R clone generated in-house, G418 selection
- Sequence (P41968 whole entry): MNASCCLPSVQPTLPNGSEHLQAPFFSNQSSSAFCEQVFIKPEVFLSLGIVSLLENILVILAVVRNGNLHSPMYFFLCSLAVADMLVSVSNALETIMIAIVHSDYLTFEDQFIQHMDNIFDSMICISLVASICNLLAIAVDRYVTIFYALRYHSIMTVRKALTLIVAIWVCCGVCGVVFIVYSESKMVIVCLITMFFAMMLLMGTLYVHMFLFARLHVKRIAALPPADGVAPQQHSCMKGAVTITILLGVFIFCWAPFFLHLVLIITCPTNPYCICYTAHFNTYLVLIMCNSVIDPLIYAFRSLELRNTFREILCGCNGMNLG
- Method description: split-luciferase cAMP sensor assay, agonist mode (measurement window 1), hMC3R
- Type: cell-based
- Measurement parameters: agonist mode, hMC3R stable cell line
Positions of bridges follow the written chain, without caps; N, C: chain ends. Non-standard residues stand in square brackets, D forms with d. Residues, ends and D or L forms follow the SMILES beside them. dPhe(4-Br) = N[C@H](Cc1ccc(Br)cc1)C(=O)O; d(αMeF) = C[C@@](N)(Cc1ccccc1)C(=O)O; Nle = CCCC[C@H](N)C(=O)O
Experimental readout: MC3R cAMP % max activation

CC(=O)N[C@@H](CCCNC(=N)N)C(=O)N[C@H]1CSSC[C@@H](C(N)=O)NC(=O)[C@@H](Cc2c[nH]c3ccccc23)NC(=O)[C@H](CCCNC(=N)N)NC(=O)[C@@](C)(Cc2ccccc2)NC(=O)[C@H](CCCNC(=N)N)NC(=O)[C@@H](C)NC1=O [CTX-1240] (Ac-RC[dA]R[d(αMeF)]R[dW]C-NH2; disulfide 2-8) :: (27%)
CCCC[C@H](NC(=O)[C@H](CCCNC(=N)N)NC(C)=O)C(=O)N[C@H]1CSSC[C@@H](C(N)=O)NC(=O)[C@@H](Cc2c[nH]c3ccccc23)NC(=O)[C@H](CCCNC(=N)N)NC(=O)[C@@H](Cc2ccc(Br)cc2)NC(=O)[C@H](CCCNC(=N)N)NC1=O [CTX-1232] (Ac-R[Nle]CR[dPhe(4-Br)]R[dW]C-NH2; disulfide 3-8 (inferred)) :: (41%)
